Tested on: Klebsiella pneumoniae
Experiment: Antibacterial activity against Klebsiella pneumoniae KP-3700 by CLSI broth microdilution method
Assay type: functional
Consider the following compounds; for each one, report its MIC.

Take a look at these entries with their results.
COMPOUND	OBSERVED_VALUE
Nc1nc(/C(=N/OCc2cc(=O)c(O)cn2O)C(=O)N[C@H]2CON(C3(C(=O)O)CCC(=O)O3)C2=O)cs1 (some centres not stated)	32 µg/mL
CC(C)(O/N=C(\C(=O)N[C@H]1CON(C2(C(=O)O)C[C@H](NC(=O)c3cc(=O)c(O)cn3O)C(=O)O2)C1=O)c1csc(N)n1)C(=O)O (some centres not stated)	8 µg/mL
CC(C)(O/N=C(\C(=O)N[C@H]1CON(C2(C(=O)O)C[C@@H](NC(=O)c3cc(=O)c(O)cn3O)C(=O)O2)C1=O)c1csc(N)n1)C(=O)O (some centres not stated)	16 µg/mL
CC(C)(O/N=C(\C(=O)N[C@H]1CON(C2(C(=O)O)C[C@H](N3C(=O)c4cc(O)c(O)cc4C3=O)C(=O)O2)C1=O)c1csc(N)n1)C(=O)O (some centres not stated)	0.5 µg/mL
CC(C)(O/N=C(\C(=O)N[C@H]1CON(C2(C(=O)O)C[C@@H](NC(=O)OCc3ccccc3)C(=O)O2)C1=O)c1csc(N)n1)C(=O)O (some centres not stated)	> 64 µg/mL

Can you give me MIC for all of these, one by one?
1. CC(C)(O/N=C(\C(=O)N[C@H]1CON(C2(C(=O)O)CCC(=O)O2)C1=O)c1csc(N)n1)C(=O)O (some centres not stated)
2. CC(C)(O/N=C(\C(=O)N[C@H]1CON(C2(C(=O)O)C[C@H](NC(=O)OCc3ccccc3)C(=O)O2)C1=O)c1csc(N)n1)C(=O)O (some centres not stated)

Response:
4 µg/mL
> 64 µg/mL

Source of measurements: ChEMBL document CHEMBL3259701
